B1: Protein S100-G, residues 1 to 79; numbered along this chain, P02633 (parent)
chain: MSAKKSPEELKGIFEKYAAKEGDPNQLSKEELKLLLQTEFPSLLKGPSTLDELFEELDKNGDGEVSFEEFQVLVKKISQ

Variants of: B1
ASSAY_COMMENT: abundance fitness (aPCA) (normalised: wild type 0, dead -1); higher = more abundant; growth selection in yeast, the domain comes from the species named
APPLIED_CONDITIONS: Bos taurus
Give abundance fitness for every item shown.
Please state the value as a number alone, without comment.

QUERY: For the variant shown here, `S42T` , give the reported abundance fitness.
RESULT: 0.084

QUERY: For the variant shown here, `T38N` , give the reported abundance fitness.
RESULT: -0.056

QUERY: For the variant shown here, `Q37C` , give the reported abundance fitness.
RESULT: -0.076

QUERY: For the variant shown here, `K76H` , give the reported abundance fitness.
RESULT: -0.153

QUERY: For the variant shown here, `L10A` , give the reported abundance fitness.
RESULT: -0.09

QUERY: For the variant shown here, `A19G` , give the reported abundance fitness.
RESULT: 0.058

QUERY: For the variant shown here, `A3M` , give the reported abundance fitness.
RESULT: 0.013

QUERY: For the variant shown here, `D62F` , give the reported abundance fitness.
RESULT: -0.138

QUERY: For the variant shown here, `L32E` , give the reported abundance fitness.
RESULT: -1.72

QUERY: For the variant shown here, `L44I` , give the reported abundance fitness.
RESULT: 0.033

QUERY: For the variant shown here, `T49I` , give the reported abundance fitness.
RESULT: -0.021

QUERY: For the variant shown here, `L35M` , give the reported abundance fitness.
RESULT: 0.031

QUERY: For the variant shown here, `T49P` , give the reported abundance fitness.
RESULT: -0.051

QUERY: For the variant shown here, `V72Q` , give the reported abundance fitness.
RESULT: -0.059

QUERY: For the variant shown here, `G46M` , give the reported abundance fitness.
RESULT: 0.053

QUERY: For the variant shown here, `K29V` , give the reported abundance fitness.
RESULT: 0.038

QUERY: For the variant shown here, `A19C` , give the reported abundance fitness.
RESULT: -0.009

QUERY: For the variant shown here, `Y17L` , give the reported abundance fitness.
RESULT: -0.332

QUERY: For the variant shown here, `L50R` , give the reported abundance fitness.
RESULT: -0.044

QUERY: For the variant shown here, `L43F` , give the reported abundance fitness.
RESULT: -0.02

QUERY: For the variant shown here, `E56L` , give the reported abundance fitness.
RESULT: -0.082

QUERY: For the variant shown here, `F67D` , give the reported abundance fitness.
RESULT: -0.294
